# Measured on: Alpha-2C adrenergic receptor (Homo sapiens)
# Method notes: modulators of alpha2C/GIRK thallium flux, primary screen, cell-based, HEK293 alpha2C/GIRK1/2 (AID 624);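 note: slope of fluorescence ratio to pre-addition baseline per second over 15 to 24 s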
# Measurement parameters: thallium flux BTC fluorescence, at 10 µM, actives lie on both sides

Compound: O=C(Oc1ccccc1N1C(=O)CCC1=O)c1ccco1
slope: 0.0069
--
Compound: CC(=O)c1c(C(C)=O)c(C)n(NC(=O)c2ccncc2)c1C
slope: 0.00487
--
Compound: Cc1ccc(C2/C(=C(\O)c3cnn(-c4ccccc4)c3C)C(=O)C(=O)N2CCN(C)C)o1 (stereo unspecified)
slope: 0.00573
--
Compound: O=C1CCC(=O)N1CNc1ccccn1
slope: 0.00525
--
Compound: COCCNc1oc(-c2ccc(C)cc2)nc1C#N
slope: 0.00692
--
Compound: Cn1c(OCc2cccnc2)nc2c1c(=O)n(Cc1ccc(Cl)cc1)c(=O)n2C
slope: 0.00416
--
Compound: COC(=O)[C@@H](N)Cc1ccc(O)cc1
slope: 0.00529
--
Compound: CC(=O)[C@H]1[C@H](C#N)C[C@H]2[C@@H]3CC=C4C[C@@H](O)CC[C@]4(C)[C@H]3CC[C@@]21C
slope: 0.00539
--
Compound: COC(=O)CN(c1nc(C)cc(OC)n1)S(=O)(=O)c1ccccc1
slope: 0.00529
--
Compound: C1CCCN(CCCCN2CCCCCC2)CC1
slope: 0.00726
--
Compound: OCCN1CCN(CCCN2c3ccccc3Sc3ccc(Cl)cc32)CC1
slope: 0.0036
--
Compound: COc1ccc(N(CN2C(=O)C3C4C=CC(C4)C3C2=O)C(=O)c2ccco2)cc1 (stereo unspecified)
slope: 0.00619
--
Compound: c1ccc(Cc2nnc3n2CCCCC3)cc1
slope: 0.0052
--
Compound: N#Cc1c(N)n(CCOC(=O)c2cccc(Br)c2)c2nc3ccccc3nc12
slope: 0.00581
--
Compound: O=CN1CCN(C(=O)CN2C(=O)c3ccccc3C2=O)CC1
slope: 0.00499
--
Compound: Oc1c(Cl)cc(Cl)cc1CNc1ccc(Br)cn1
slope: 0.00449
--
Compound: CC1(C(=O)O)CCC(C(=O)NC2CCCCCC2)C1(C)C (stereo unspecified)
slope: 0.00621
--
Compound: O=C(NCc1ccco1)c1ccc(=O)oc1
slope: 0.00508
--
Compound: COc1cccc(-c2nn3c(-c4ccco4)nnc3s2)c1
slope: 0.00559
--
Compound: COc1cccc(OC)c1-c1nn2c(-c3ccco3)nnc2s1
slope: 0.00439
--
Compound: CC1(C)Cc2c(C#N)c(SCCC#N)nc(N3CCOCC3)c2CS1
slope: 0.0053
--
Compound: N#Cc1c(N)nc(SCc2ccccn2)c(C#N)c1-c1cccs1
slope: 0.00485
--
Compound: O=C(c1coc(=O)c(Br)c1)N1CCCc2ccccc21
slope: 0.00466
--
Compound: O=C1N[C@@H](Cc2cnc[nH]2)C(=O)N2CCC[C@@H]12
slope: 0.0041
--
Compound: CC(C)N1CC=C2C(C#N)=C(N)C(C#N)(C#N)C(c3ccccc3)C2C1 (stereo unspecified)
slope: 0.000192
--
Compound: NS(=O)(=O)c1cc2c(cc1C(F)(F)F)NC(Cc1ccccc1)NS2(=O)=O (stereo unspecified)
slope: 0.00523
--
Compound: COc1ccc(C(=O)Nc2cccnc2)cc1C(=O)Nc1cccnc1
slope: 0.00454
--
Compound: c1ccc(-c2nn3c(C4CCCCC4)nnc3s2)cc1
slope: 0.00411
--
Compound: CCc1cn([C@H]2C[C@H](O)[C@@H](CO)O2)c(=O)[nH]c1=O
slope: 0.00501
--
Compound: C[C@]12CC[C@@H]3c4ccc(O)cc4CC[C@H]3[C@@H]1CC[C@@H]2OC(=O)CCC(=O)O
slope: 0.0043
--
Compound: CN(C)c1nc2n(c(=S)n1)CCS2
slope: 0.00562
--
Compound: CC(C)(C)C1CCC2(CC1)C(C#N)=C(SCC(=O)Nc1ccccc1)NC(=O)C2C#N (stereo unspecified)
slope: 0.0063
--
Compound: Cc1ccccc1NC(=O)NCCc1nc2ccccc2[nH]1
slope: 0.00493
--
Compound: O=c1c(-c2ccc3c(c2)OCCO3)c(C(F)(F)F)oc2cc(O)cc(O)c12
slope: 0.00864
--
Compound: COc1ccc(NS(=O)(=O)c2ccc(N)cc2)nn1
slope: 0.00455
--
Compound: N#CC1=C(C=Nc2ccccc2O)CCC1
slope: 0.00456
--
Compound: CC1(C)CC(=O)C2=C(C1)N(Cc1ccco1)C(=O)C2(NC(=O)c1cccnc1)C(F)(F)F (stereo unspecified)
slope: 0.00643
--
Compound: Cc1cc(C)cc(CC2CC(=O)N(c3cc(C)on3)C2=O)c1 (stereo unspecified)
slope: 0.00547
--
Compound: O=C(CN1C(=O)c2ccccc2C1=O)NCc1ccncc1
slope: 0.00529
--
Compound: Clc1ccccc1-c1nn2c(-c3ccccn3)nnc2s1
slope: 0.00777
--
Compound: CO[C@H]1C[C@@H]2CC[C@@H](C)[C@@](O)(O2)C(=O)C(=O)N2CCCC[C@H]2C(=O)O[C@H]([C@H](C)C[C@@H]2CC[C@@H](O)[C@H](OC)C2)CC(=O)[C@H](C)C=C(C)[C@@H](O)[C@@H](OC)C(=O)[C@H](C)C[C@H](C)C=CC=CC=C1C
slope: 0.00536
--
Compound: CC12CCC(C(=O)N(CCC#N)CCC#N)(CC1=O)C2(C)C (stereo unspecified)
slope: 0.00706
--
Compound: N#CC(C(=O)Nc1ccc(Cl)c(Cl)c1)=C1Nc2ccccc2N1
slope: 0.00591
--
Compound: CCC(C)Nc1nc(-c2cccc(OC)c2O)nc2ccccc12 (stereo unspecified)
slope: 0.00426
--
Compound: CC(=O)OCC(=O)[C@@]1(O)CC[C@H]2[C@@H]3CCC4=CC(=O)CC[C@]4(C)[C@H]3C(=O)C[C@@]21C
slope: 0.00575
--
Compound: CC(C)NC(=O)N1CCOCCOCCN(C(=O)NC(C)C)CCOCCOCC1
slope: 0.00725
